Test system: Leishmania pifanoi
Test: Antileishmanial activity against Leishmania pifanoi MHOM/VE/60/Ltrod after 96 hrs by MTT assay
Type: functional
Reported LC50 by item:
// return numeric value only (unit: µM, not printed)

Examples from the recorded data:
Prompt: Param item = O=C(c1ccc(C[P+](c2ccccc2)(c2ccccc2)c2ccccn2)cc1)c1ccc(C[P+](c2ccccc2)(c2ccccc2)c2ccccn2)cc1.[Br-].[Br-] ; retrieve measured LC50.
Completion: 2.58

Prompt: Could you tell me which LC50 is on file for Cc1ccccc1[P+](Cc1ccc(C(=O)c2ccc(C[P+](c3ccccc3)(c3ccccc3)c3ccccc3C)cc2)cc1)(c1ccccc1)c1ccccc1.[Br-].[Br-] ?
Completion: 1.51

Prompt: What value of measured LC50 is listed for CCCCCCCCCCCCCCCCOP(=O)([O-])OCC[N+](C)(C)C ?
Completion: 26.3

Turning to the following molecule.
Prompt: For CCCCCCCC[P+](CCCCCCCC)(CCCCCCCC)Cc1ccc(C(=O)c2ccc(C[P+](CCCCCCCC)(CCCCCCCC)CCCCCCCC)cc2)cc1.[Br-].[Br-] , what is its reported LC50?
Completion: 1.37

Values compiled from ChEMBL document CHEMBL1157544.
